Test: Viability (propidium iodide staining), NCI-H460
Format: cell-based
Settings: human, NCI-H460 cells (lung); NCI-H460 lung (NSCLC); 500 nM; 48 h

{"SMILES_STR": "COc1cc(NC(=S)NC(=O)/C=C/c2ccco2)ccc1-c1cc2ccccc2oc1=O", "viability at 48 h, 0.5 µM (%)": 80}

---

Test: Viability (propidium iodide staining), Jurkat
Format: cell-based
Details: human, Jurkat cells, 500 nM, 48 h
READOUT: viability at 48 h, 0.5 µM

{"COMPOUND": "COc1cc(NC(=S)NC(=O)/C=C/c2ccco2)ccc1-c1cc2ccccc2oc1=O [Compound 01]", "REPORTED_MEASUREMENT": "4%"}

---

Assay: Viability (propidium iodide staining), A375
Type: cell-based
Settings: human, A375 cells (melanoma), 500 nM, 48 h

{"SMILES_STR": "COc1cc(NC(=S)NC(=O)/C=C/c2ccco2)ccc1-c1cc2ccccc2oc1=O", "viability at 48 h, 0.5 µM, %": 65}

---

Assay: Viability (propidium iodide staining), NCI-H460
Type: cell-based
Settings: human, NCI-H460 cells (lung); NCI-H460 lung (NSCLC); 500 nM; 72 h

{"SMILES_STR": "COc1cc(NC(=S)NC(=O)/C=C/c2ccco2)ccc1-c1cc2ccccc2oc1=O", "UNIT_DESCRIPTOR": "%", "viability at 72 h, 0.5 µM": 80}

---

Assay: Viability (propidium iodide staining), U937
Assay type: cell-based
Details: human, U937 cells (myeloid), 500 nM, 72 h

{"SMILES_STR": "COc1cc(NC(=S)NC(=O)/C=C/c2ccco2)ccc1-c1cc2ccccc2oc1=O", "UNIT_DESCRIPTOR": "%", "viability at 72 h, 0.5 µM": 6}

---

Assay: Viability (propidium iodide staining), U937
Type: cell-based
Details: human, U937 cells (myeloid), 500 nM, 48 h

{"COMPOUND": "COc1cc(NC(=S)NC(=O)/C=C/c2ccco2)ccc1-c1cc2ccccc2oc1=O [Compound 01]", "UNIT_DESCRIPTOR": "%", "viability at 48 h, 0.5 µM": 25}

---

Experiment: Viability (propidium iodide staining), MRC5
Assay type: cell-based
Settings: human; MRC5 non-transformed fibroblasts; 500 nM; 72 h
READOUT: viability at 72 h, 0.5 µM (%)

{"SMILES_STR": "COc1cc(NC(=S)NC(=O)/C=C/c2ccco2)ccc1-c1cc2ccccc2oc1=O", "READOUT": "viability at 72 h, 0.5 µM", "REPORTED_MEASUREMENT": 89}

---

Assay: Viability (propidium iodide staining), CEM
Type: cell-based
Details: human, CEM cells (lymphoid), 500 nM, 72 h

{"SMILES_STR": "COc1cc(NC(=S)NC(=O)/C=C/c2ccco2)ccc1-c1cc2ccccc2oc1=O", "viability at 72 h, 0.5 µM": "2%"}

---

Assay: Viability (propidium iodide staining), PC3
Format: cell-based
Conditions: human, PC3 cells (prostate), 500 nM, 48 h

{"SMILES_STR": "COc1cc(NC(=S)NC(=O)/C=C/c2ccco2)ccc1-c1cc2ccccc2oc1=O", "viability at 48 h, 0.5 µM": "92%"}

---

Assay: Viability (propidium iodide staining), A375
Format: cell-based
Settings: human, A375 cells (melanoma), 500 nM, 72 h
Protocol: Propidium iodide (PI) cannot normally cross the cell membrane; it is thus excluded by viable cells but not from dying or dead cells, having a damaged membrane, where it intercalates into double-stranded nucleic acids and fluoresces when excited at 488 nm. The cells are pelleted by gentle centrifugation 1200 rpm/5 min/4° C., then the supernatant is discarded and replaced by 1 mL of fresh medium. […]

{"SMILES_STR": "COc1cc(NC(=S)NC(=O)/C=C/c2ccco2)ccc1-c1cc2ccccc2oc1=O", "viability at 72 h, 0.5 µM (%)": 35}
